Where these numbers come from: the supplement of paper PMC4709259

Tested on: Jurkat
ASSAY SUMMARY: mean cell size (FSC-A) relative to DMSO control (fraction of control); higher = larger cells
MEASUREMENT SETUP: 48 h
Where a name gives a salt, the structure may show the parent alone.
Each item that follows carries a reported mean cell size.
// return just the number, without any unit appended

Would you please look over these solved cases?
CO[C@H]1/C=C/O[C@@]2(C)Oc3c(C)c(O)c4c(O)c(c(/C=N/N5CCN(C)CC5)c(O)c4c3C2=O)NC(=O)/C(C)=C\C=C\[C@H](C)[C@H](O)[C@@H](C)[C@@H](O)[C@@H](C)[C@H](OC(C)=O)[C@@H]1C [Rifampin (Rifampicin)] (concentration: 25 µM): 0.964
CCOC(=O)[C@H](CCc1ccccc1)N[C@@H](C)C(=O)N1[C@H](C(=O)O)C[C@H]2CCCC[C@@H]21 [Trandolapril] (concentration: 25 µM): 0.973
CC1(C)O[C@@H]2C[C@H]3[C@@H]4CCC5=CC(=O)C=C[C@]5(C)[C@H]4[C@@H](O)C[C@]3(C)[C@]2(C(=O)CO)O1 [Desonide] (concentration: 25 µM): 0.948

Reported mean cell size, molecule C[N+](C)(C)C[C@H](O)CC(=O)[O-] [Levocarnitine] (concentration: 25 µM) : ____
0.938

Report mean cell size for CC(=O)Nc1nnc(S(N)(=O)=O)s1 [Acetazolamide] (concentration: 25 µM) please.
1.04

Suppose we examine the molecule Nc1nc(NC2CC2)c2ncn([C@H]3C=C[C@@H](CO)C3)c2n1 [Abacavir Sulfate] (concentration: 25 µM) ; what mean cell size value has been reported?
1.1

* * *

System: Jurkat
ASSAY SUMMARY: mean cell size (FSC-A) relative to DMSO control (fraction of control); higher = larger cells
MEASUREMENT SETUP: 48 h
Structures can show the parent of a compound that is named as a salt.
Threshold check on mean cell size: at or above 1 gives true, strictly below gives false.

Worked examples follow.
CN[C@@H]1[C@H](O)[C@H](NC)[C@H]2O[C@@]3(O)C(=O)C[C@@H](C)O[C@H]3O[C@@H]2[C@H]1O [Spectinomycin·HCl Pentahydrate] (concentration: 25 µM): true
COc1cc([C@@H]2c3cc4c(cc3[C@@H](O[C@@H]3O[C@@H]5CO[C@@H](c6cccs6)O[C@H]5[C@H](O)[C@H]3O)[C@H]3COC(=O)[C@H]23)OCO4)cc(OC)c1O [Teniposide] (concentration: 25 nM): true
CNS(=O)(=O)CCc1ccc2[nH]cc(C3CCN(C)CC3)c2c1 [Naratriptan·HCl] (concentration: 25 µM): false
CO/N=C(\C(=O)N[C@@H]1C(=O)N2C(C(=O)O)=C(CSc3nc(=O)c(=O)[nH]n3C)CS[C@H]12)c1csc(N)n1 [Ceftriaxone·Na] (concentration: 25 µM): false

Decide: mean cell size of CC(=O)O[C@]1(C(C)=O)CC[C@H]2[C@@H]3C[C@H](C)C4=CC(=O)CC[C@]4(C)[C@H]3CC[C@@]21C [Medroxyprogesterone Acetate] (concentration: 25 µM) >= 1?
false

Hello, I need to know if COc1c(N2C[C@@H]3CCCN[C@@H]3C2)c(F)cc2c(=O)c(C(=O)O)cn(C3CC3)c12 [Moxifloxacin·HCl] (concentration: 25 µM) has measured mean cell size not below 1. Thanks!
false

Form field: mean cell size at least 1? Entry: Cc1ccc(-c2cc(C(F)(F)F)nn2-c2ccc(S(N)(=O)=O)cc2)cc1 [Celecoxib] (concentration: 25 µM)
false

Has C=CC[N+]1([C@H]2C[C@H]3[C@@H]4CC[C@H]5C[C@H](O)[C@@H](N6CCOCC6)C[C@]5(C)[C@H]4CC[C@]3(C)[C@H]2OC(C)=O)CCCC1 [Rocuronium Bromide] (concentration: 25 µM) a recorded mean cell size greater than or equal to 1?
false

State whether the measured mean cell size reaches 1, counting equality as reaching it, for CCCCc1oc2ccccc2c1C(=O)c1cc(I)c(OCCN(CC)CC)c(I)c1 [Amiodarone·HCl] (concentration: 2.5 µM)
true

* * *

Test system: Jurkat
ASSAY SUMMARY: mean cell size (FSC-A) relative to DMSO control (fraction of control); higher = larger cells
MEASUREMENT SETUP: 48 h
Counter-ions that a name gives are not always drawn.
Listed here are compounds together with their documented mean cell size.
Just the number, please, no unit attached.

Cc1ccsc1C(=CCCN1CCC[C@@H](C(=O)O)C1)c1sccc1C [Tiagabine·HCl] (concentration: 25 µM): 0.936
Nc1nc2c(ncn2COCCO)c(=O)[nH]1 [Acyclovir (Acycloguanosine) Zovirax] (concentration: 25 µM): 0.977
NNC(=O)c1ccncc1 [Isoniazid] (concentration: 25 µM): 0.969

Let's switch to this compound now.
Return reported mean cell size; argument: NC(=O)c1cnccn1 [Pyrazinamide] (concentration: 25 µM)
1

* * *

Tested on: Jurkat
ASSAY SUMMARY: mean cell size (FSC-A) relative to DMSO control (fraction of control); higher = larger cells
MEASUREMENT SETUP: 48 h
MEASURED ENDPOINT: mean cell size
The answer should be a number; do not append a unit.

Observe how each entry below is paired with its result.
Nc1nc(=O)n([C@@H]2CS[C@H](CO)O2)cc1F [Emtricitabine] (concentration: 25 µM): 1.03
COc1ccccc1OCC(O)COC(N)=O (centres undefined) [Methocarbamol] (concentration: 25 µM): 0.969

Param item = Nc1ccn(C[C@@H](CO)OCP(=O)(O)O)c(=O)n1 [Cidofovir] (concentration: 25 µM) ; retrieve measured mean cell size.
1.13

Given O=C1C(=O)c2ccccc2C(O)=C1C1CCC(c2ccc(Cl)cc2)CC1 (centres undefined) [Atovaquone] (concentration: 25 µM) , state its recorded mean cell size.
0.91

* * *

System: Jurkat
ASSAY SUMMARY: cell count relative to DMSO control (fraction of control); higher = more cells (less growth inhibition)
MEASUREMENT SETUP: 48 h
Where a name gives a salt, the structure may show the parent alone.
MEASURED ENDPOINT: cell count
Could you respond with only the numeric value?

CC1(C)S[C@@H]2[C@H](NC(=O)COc3ccccc3)C(=O)N2[C@H]1C(=O)O [Penicillin V Potassium] (concentration: 25 µM): 1.09
CC(N)C12CC3CC(CC(C3)C1)C2 (stereo unspecified) [Rimantadine·HCl] (concentration: 25 µM): 0.697
N[C@@H](Cc1cc(I)c(Oc2cc(I)c(O)c(I)c2)c(I)c1)C(=O)O [Levothyroxine·Na] (concentration: 25 µM): 0.808
Cc1nnc(C(C)C)n1C1C[C@H]2CC[C@@H](C1)N2CC[C@H](NC(=O)C1CCC(F)(F)CC1)c1ccccc1 (stereo in doubt) [Maraviroc] (concentration: 25 µM): 0.668
C#C[C@]1(O)CC[C@H]2[C@@H]3CCC4=CC(=O)CC[C@@H]4[C@H]3CC[C@@]21C [Norethindrone] (concentration: 25 µM): 0.901

Consider the compound shown here: COc1ccc2c(c1)c(CC(=O)O)c(C)n2C(=O)c1ccc(Cl)cc1 [Indomethacin] (concentration: 25 µM) What is its recorded cell count?
0.482

For the compound shown here, CC(=O)/N=c1/sc(S(N)(=O)=O)nn1C [Methazolamide] (concentration: 25 µM) , give the reported cell count.
0.925

# get_value(readout='cell count', item= CCCCC[C@H](O)/C=C/[C@H]1[C@H](O)CC(=O)[C@@H]1C/C=C\CCCC(=O)O [Dinoprostone] (concentration: 25 µM) )
0.399

Which cell count reading was recorded for the compound Nc1c(CC(=O)O)cccc1C(=O)c1ccc(Br)cc1 [Bromfenac] (concentration: 25 µM) ?
1.05

# query: cell count of entry O=C1N=C(O)CN1N=Cc1ccc(-c2ccc([N+](=O)[O-])cc2)o1 [Dantrolene·Na] (concentration: 25 µM)
0.837

// query cell count value for entry C[N+]1(C)CCC(OC(=O)C(O)(c2ccccc2)C2CCCC2)C1 (stereo unspecified) [Glycopyrrolate Iodide] (concentration: 25 µM)
0.838

* * *

Tested on: Jurkat
ASSAY SUMMARY: cell count relative to DMSO control (fraction of control); higher = more cells (less growth inhibition)
MEASUREMENT SETUP: 48 h
Where a name gives a salt, the structure may show the parent alone.
cell count vs 0.7: at or above is True, below is False.

Reference set (3 entries):
Nc1ccn([C@@H]2O[C@H](CO)[C@@H](O)C2(F)F)c(=O)n1 [Gemcitabine·HCl] (concentration: 25 nM): False
CCOC(=O)C1=C[C@@H](OC(CC)CC)[C@H](NC(C)=O)[C@@H](N)C1 [Oseltamivir Phosphate] (concentration: 25 µM): True
CCCOc1ccc(C(=O)OCCN(CC)CC)cc1N [Proparacaine·HCl] (concentration: 25 µM): True

Entry Clc1ccc(CCC(Cn2ccnc2)Sc2c(Cl)cccc2Cl)cc1 (configuration not stated) [Butoconazole Nitrate] (concentration: 25 µM) : is its cell count no less than 0.7?
True

For this compound, is measured cell count 0.7 or higher? CN(C)CCOC(=O)C(c1ccccc1)C1(O)CCCC1 (configuration not stated) [Cyclopentolate] (concentration: 25 µM)
False
